- targetOrTestSystem: Kras and SOS1 (biotin-tagged human Kras loaded with GDP, His-tagged human SOS1) (Homo sapiens, UniProt P01116, G12D)
- Construct: made in house; host or cells: E. coli (stated for Kras only)
- Sequence (P01116 1-188 isoform P01116-2 G12D): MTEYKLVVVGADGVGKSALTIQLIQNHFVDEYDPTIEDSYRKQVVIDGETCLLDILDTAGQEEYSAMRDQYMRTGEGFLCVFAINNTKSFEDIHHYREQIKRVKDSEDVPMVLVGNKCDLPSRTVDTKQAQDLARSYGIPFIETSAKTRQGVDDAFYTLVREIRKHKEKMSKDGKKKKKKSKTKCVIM
- assayOverview: Protein-protein interaction inhibition between Kras and SOS1 (KrasGl2D-SOS PPI) using AlphaScreen
- Assay type: binding
- cond: AlphaScreen; biotin-tagged human Kras loaded with GDP, His-tagged human SOS1; read-out: KRAS G12D-SOS PPI IC50
pIC50: −log10 of the molar value. Positions of bridges follow the written chain, without caps; N, C: chain ends. Non-standard residues stand in square brackets, D forms with d. Residues, ends and D or L forms follow the SMILES beside them. *: point of attachment. hPhe(3-Cl-4-CF3) = N[C@@H](CCc1ccc(C(F)(F)F)c(Cl)c1)C(=O)O; NMeChg = CN[C@H](C(=O)O)C1CCCCC1; NMeD = CN[C@@H](CC(=O)O)C(=O)O; NMeAbu = CC[C@H](NC)C(=O)O; NMeS = CN[C@@H](CO)C(=O)O; Pyrrolidide = C1CCN(*)C1; Ac5c = NC1(C(=O)O)CCCC1; Sar = CNCC(=O)O; Propyl = CCC*
outcomeMeasure: pIC50

# molecule, resultValue
measured = [
    ("CCCOC[C@H]1C(=O)N(C)CC(=O)N[C@@H](CCc2ccc(C(F)(F)F)c(Cl)c2)C(=O)N2CCC[C@H]2C(=O)NC2(CCCC2)C(=O)N(C)[C@@H](C2CCCCC2)C(=O)N(C)[C@H](C(=O)N2CCCC2)CC(=O)N(C)[C@@H](CC)C(=O)N[C@@H]([C@@H](C)CC)C(=O)N(C)CC(=O)N(C)CC(=O)N1C [Compound 1929] ([NMeAbu]I[Sar][Sar][NMeS](Propyl)[Sar][hPhe(3-Cl-4-CF3)]P[Ac5c][NMeChg][NMeD]-Pyrrolidide; lactam N-11)", 9.21),
]
